Cited source: the supplement of paper PMC9663587

- Test system: AU565
- Protocol description: GRmax, 72 h; higher = less effect
Quick rule: GRmax, 72 h of at least -0.2 GR means fulfilled, below that means not fulfilled.

Molecule | Target or test system | Class name
CN(C)C/C=C/C(=O)Nc1ccc(C(=O)Nc2cccc(Nc3cc(-c4c[nH]c5ccccc45)ncn3)c2)cc1 [THZ-P1-2] (max 10 µM) | AU565 | not fulfilled
C=CCn1c(=O)c2cnc(Nc3ccc(N4CCN(C)CC4)cc3)nc2n1-c1cccc(C(C)(C)O)n1 [AZD1775] (max 10 µM) | AU565 | not fulfilled
CCc1cnn2c(NCc3ccc[n+]([O-])c3)cc(N3CCCC[C@H]3CCO)nc12 (max 1 µM) | AU565 | not fulfilled
NC(=O)Nc1cc(-c2cccc(F)c2)sc1C(=O)N[C@H]1CCCNC1 [AZD7762] (max 10 µM) | AU565 | not fulfilled
O=C(CCCCCCC(=O)Nc1ccccc1)NO [Vorinostat] (max 10 µM) | AU565 | not fulfilled
CN1CCN(CCOc2cc(OC3CCOCC3)c3c(Nc4c(Cl)ccc5c4OCO5)ncnc3c2)CC1 [Saracatinib/AZD0530] (max 10 µM) | AU565 | fulfilled
CN(C)C/C=C/C(=O)Nc1ccc(O[C@@H]2CCC[C@@H](Nc3ncc(Cl)c(-c4c[nH]c5ccccc45)n3)C2)cc1 [BSJ-01-175] (max 10 µM) | AU565 | not fulfilled
CN1CC[C@H](c2c(O)cc(O)c3c(=O)cc(-c4ccccc4Cl)oc23)[C@H](O)C1 [Flavopiridol] (max 1 µM) | AU565 | not fulfilled
COc1cc2nccc(Oc3ccc(NC(=O)C4(C(=O)Nc5ccc(F)cc5)CC4)cc3)c2cc1OC [Cabozantinib] (max 10 µM) | AU565 | fulfilled
CN(C)CC[C@H](CSc1ccccc1)Nc1ccc(S(=O)(=O)NC(=O)c2ccc(N3CCN(Cc4ccccc4-c4ccc(Cl)cc4)CC3)cc2)cc1[N+](=O)[O-] [ABT-737] (max 10 µM) | AU565 | fulfilled
CCCCOc1c(C(=O)c2c(F)cc(C)cc2F)c[nH]c2nncc1-2 (max 10 µM) | AU565 | fulfilled
CC(=O)O[C@H]1C(=O)[C@@]2(C)[C@H]([C@H](OC(=O)c3ccccc3)[C@]3(O)C[C@H](OC(=O)[C@H](O)[C@@H](NC(=O)c4ccccc4)c4ccccc4)C(C)=C1C3(C)C)[C@]1(OC(C)=O)CO[C@@H]1C[C@@H]2O [Paclitaxel] (max 1 µM) | AU565 | not fulfilled
CCNC(=O)c1noc(-c2cc(C(C)C)c(O)cc2O)c1-c1ccc(CN2CCOCC2)cc1 [Luminespib/NVP-AUY922] (max 1 µM) | AU565 | not fulfilled
CCN1CCN(Cc2ccc(Nc3ncc(F)c(-c4cc(F)c5nc(C)n(C(C)C)c5c4)n3)nc2)CC1 (max 10 µM) | AU565 | not fulfilled

---

- Test system: MDAMB453
- Protocol description: GRmax, 72 h; higher = less effect
Assay readout: GRmax, 72 h (GR)

Molecule | Assay readout | Value reported
CC(C)n1nc(-c2ccc3oc(N)nc3c2)c2c(N)ncnc21 [INK128/MLN0128] (max 3.162 µM) | GRmax, 72 h | -0.468
CC(=O)c1c(C)c2cnc(Nc3ccc(N4CCN(CCOCCOCCOCCNC(=O)COc5cccc6c5C(=O)N(C5CCC(=O)NC5=O)C6=O)CC4)cn3)nc2n(C2CCCC2)c1=O (stereo not drawn) [BSJ-03-123] (max 10 µM) | GRmax, 72 h | -0.022
COc1cccc2c1C(=O)c1c(O)c3c(c(O)c1C2=O)C[C@@](O)(C(=O)CO)C[C@@H]3O[C@H]1C[C@H](N)[C@H](O)[C@H](C)O1 [Doxorubicin] (max 3.162 µM) | GRmax, 72 h | -0.348

---

- Tested on: UACC812
- Protocol description: GRmax, 72 h; higher = less effect
Each entry below carries its reported GRmax, 72 h.
Assay readout: GRmax, 72 h (GR)

Molecule | Target or test system | Assay readout | Result unit | Value reported
CC(C)NC[C@@H](C(=O)N1CCN(c2ncnc3c2[C@H](C)C[C@H]3O)CC1)c1ccc(Cl)cc1 [Ipatasertib/GDC0068] (max 10 µM) | UACC812 | GRmax, 72 h | GR | 0.0704
COc1cc2c(Oc3ccc4[nH]c(C)cc4c3F)ncnc2cc1OCCCN1CCCC1 [Cediranib/AZD2171] (max 10 µM) | UACC812 | GRmax, 72 h | GR | -0.575
CN(C)CC[C@H](CSc1ccccc1)Nc1ccc(S(=O)(=O)NC(=O)c2ccc(N3CCN(Cc4ccccc4-c4ccc(Cl)cc4)CC3)cc2)cc1[N+](=O)[O-] [ABT-737] (max 10 µM) | UACC812 | GRmax, 72 h | GR | 0.329
CN1CCN(CCOc2cc(OC3CCOCC3)c3c(Nc4c(Cl)ccc5c4OCO5)ncnc3c2)CC1 [Saracatinib/AZD0530] (max 10 µM) | UACC812 | GRmax, 72 h | GR | -0.847
Nc1ccc(-c2ccc3ncc4ccc(=O)n(-c5cccc(C(F)(F)F)c5)c4c3c2)cn1 [Torin2] (max 1 µM) | UACC812 | GRmax, 72 h | GR | -0.817
CN(C)C/C=C/C(=O)Nc1ccc(O[C@@H]2CCC[C@@H](Nc3ncc(Cl)c(-c4c[nH]c5ccccc45)n3)C2)cc1 [BSJ-01-175] (max 10 µM) | UACC812 | GRmax, 72 h | GR | -0.92

---

- System: MDAMB453
- Protocol description: GRmax, 72 h; higher = less effect

Compound | GRmax, 72 h
CC(C)Nc1cc(-c2c[nH]c(C(=O)N[C@H](CO)c3cccc(Cl)c3)c2)c(Cl)cn1 [BVD523] (max 10 µM) | 0.387 GR
Nc1cc(C(F)(F)F)c(-c2cc(N3CCOCC3)nc(N3CCOCC3)n2)cn1 [Buparlisib/NVP-BKM120] (max 10 µM) | -0.607 GR
CC(C)NC[C@@H](C(=O)N1CCN(c2ncnc3c2[C@H](C)C[C@H]3O)CC1)c1ccc(Cl)cc1 [Ipatasertib/GDC0068] (max 10 µM) | -0.155 GR
N.N.[Cl][Pt][Cl] [Cisplatin] (max 10 µM) | 0.133 GR

---

# GRmax, 72 h values compiled below
- Test system: MCF10A (GM)
- Protocol description: GRmax, 72 h; higher = less effect

Compound | Target or test system | GRmax, 72 h [GR]
COc1cc(N2CCN(C)CC2)ccc1Nc1ncc2c(n1)N(C)c1ccccc1C(=O)N2CC(F)(F)F | MCF10A (GM) | 0.977
CC(=O)c1c(C)c2cnc(Nc3ccc(N4CCN(CCOCCOCCOCCNC(=O)COc5cccc6c5C(=O)N(C5CCC(=O)NC5=O)C6=O)CC4)cn3)nc2n(C2CCCC2)c1=O (stereo not drawn) [BSJ-03-123] (max 10 µM) | MCF10A (GM) | -0.17
COc1cccc(OCCCN)c1-c1cc(Nc2cnc(C#N)cn2)n[nH]1 | MCF10A (GM) | 0.322
CCCCOc1c(C(=O)c2c(F)cc(C)cc2F)c[nH]c2nncc1-2 (max 10 µM) | MCF10A (GM) | 0.106
CNC(=O)c1cccc(-c2ccc3c(N4CCOC[C@@H]4C)nc(N4CCOC[C@@H]4C)nc3n2)c1 [AZD2014] (max 10 µM) | MCF10A (GM) | 0.211
CCC(=O)Nc1ccc(C(=O)Nc2ccc(Nc3ncc4c(n3)N(C)c3ccc(C)cc3C(=O)N4C)cc2)cc1 | MCF10A (GM) | 0.0984
CN1CCN(C(=O)c2ccc3cc(CCNc4ncnc5ccc(C#N)cc45)ccc3c2)CC1 [senexin b] (max 10 µM) | MCF10A (GM) | 0.893
NC1(C(=O)N[C@@H](CCO)c2ccc(Cl)cc2)CCN(c2nc[nH]c3nccc2-3)CC1 [AZD5363] (max 10 µM) | MCF10A (GM) | 0.641

---

- System: HS578T
- Protocol description: GRmax, 72 h; higher = less effect;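 also: breast cell lines in 384-well plates, nine doses across a 10^4 range, Dye Drop imaging of viable cells vs DMSO and time-zero plates, GR 0 means no net growth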
Record fulfilled whenever GRmax, 72 h is at -0.4 GR or higher; record not fulfilled when lower.

Compound | Target or test system | Class name
Cc1nc(Nc2ncc(C(=O)Nc3c(C)cccc3Cl)s2)cc(N2CCN(CCO)CC2)n1 [Dasatinib] (max 10 µM) | HS578T | fulfilled
CC[C@@H]1C(=O)N(C)c2cnc(Nc3ccc(C(=O)N[C@H]4CC[C@H](N5CCN(CC6CC6)CC5)CC4)cc3OC)nc2N1C(C)C [Volasertib/BI6727] (max 1 µM) | HS578T | fulfilled
CC(=O)O[C@H]1C(=O)[C@@]2(C)[C@H]([C@H](OC(=O)c3ccccc3)[C@]3(O)C[C@H](OC(=O)[C@H](O)[C@@H](NC(=O)c4ccccc4)c4ccccc4)C(C)=C1C3(C)C)[C@]1(OC(C)=O)CO[C@@H]1C[C@@H]2O [Paclitaxel] (max 1 µM) | HS578T | fulfilled
C=CC(=O)Nc1ccc(C(=O)Nc2[nH]nc3c2CN(C(=O)N[C@H](CN(C)C)c2ccccc2)C3(C)C)cc1 [YKL-5-124] (max 10 µM) | HS578T | not fulfilled
CC[C@@]1(O)C(=O)OCc2c1cc1n(c2=O)Cc2cc3c(CN(C)C)c(O)ccc3nc2-1 [Topotecan] (max 10 µM) | HS578T | not fulfilled
CCN1CCN(Cc2ccc(Nc3ncc(F)c(-c4cc(F)c5nc(C)n(C(C)C)c5c4)n3)nc2)CC1 (max 10 µM) | HS578T | not fulfilled
